B1: CPEB3 Ribozyme (parent)
chain: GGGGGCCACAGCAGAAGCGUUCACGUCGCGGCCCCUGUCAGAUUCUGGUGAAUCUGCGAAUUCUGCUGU

Variants of: B1
Assay: self-cleavage, relative activity (ratio to wild type); higher = more cleavage; co-transcriptional
Answer class 0 if self-cleavage is under 0.2, and class 1 if it is 0.2 or more.

Solved cases below.
sequence-input: GGGGGCCACAGCAGAAGCGUUCACGUCGCGGCCCCUGUCAGACACUGGUGAAUCUGCGAAUUCUGCUGU [U43C U44A]
label-value: class 1
//
sequence-input: GGGGGCCACAGCAGAAGCGUUCACGUCGCGGCCCCUGUCAGGAUCUGGUGAAUCUGCGAAUUCUGCUGU [A42G U43A]
label-value: class 1
//
sequence-input: GGGGGCCACAGCAGAAGCGUUCACGUCGCAGCCCCUGUCAGAUUCUGGUGAAACUGCGAAUUCUGCUGU [G30A U53A]
label-value: class 1
//
sequence-input: GGGGGCCACAGCAGAAGCGUUCGCGUCGCGGCCCCUGUCAGAUGCUGGUGAAUCUGCGAAUUCUGCUGU [A23G U44G]
label-value: class 1
//
sequence-input: GGGGGCCACAGCAUAAGCGUCCACGUCGCGGCCCCUGUCAGAUUCUGGUGAAUCUGCGAAUUCUGCUGU [G14U U21C]
label-value: class 1

Entry GGGGGACACAGCAGAAGCGUUCACGUCGCGGCCCCUGUCAGAUUCUGGUGAAUCUGCGAAUUCUGCAGU [C6A U67A] : is its self-cleavage no less than 0.2?
class 1

Can you handle GGGGGCCACAUCAGAAGCGUUCACGUCGCGGCCCCUGUCAGAUUCUGGUGAAUCUGUGAAUUCUGCUGU [G11U C57U] next?
class 1

Can you handle UGGGGCCACAGCAGAAGCGUUCACGUCGCGGCCCCUGUCAGAUUCUGGUGGAUCUGCGAAUUCUGCUGU [G1U A51G] next?
class 0
